# CONDITION_PARAMETERS: 313.15 K; 101.33 kPa; Liquid
MEASURED_METRIC: viscosity (mPa·s)
Write the value in mPa·s as a bare number.

- COMPOUND: "CCCC[P+](CCCC)(CCCC)CCCC.C[C@@H](O)[C@H](N)C(=O)[O-] [tetrabutylphosphonium L-threoninate]"
  MEASURED_METRIC: "viscosity"
  DISPLAY_UNIT: "mPa·s"
  NUMERIC_VALUE: 260.1
- COMPOUND: "CCCC[N+](C)(CCCC)CCCC.N[C@@H](CO)C(=O)[O-] [N,N-dibutyl-N-methylbutanaminium L-serinate]"
  MEASURED_METRIC: "viscosity"
  DISPLAY_UNIT: "mPa·s"
  NUMERIC_VALUE: 2160
- COMPOUND: "CCCC[N+](C)(CCCC)CCCC.NCCCC[C@H](N)C(=O)[O-] [N,N-dibutyl-N-methyl-1-butanaminium L-lysinate]"
  MEASURED_METRIC: "viscosity"
  DISPLAY_UNIT: "mPa·s"
  NUMERIC_VALUE: 741.4
- COMPOUND: "CCCC[P+](CCCC)(CCCC)CCCC.NCCCC[C@H](N)C(=O)[O-] [tetrabutylphosphonium L-lysinate]"
  MEASURED_METRIC: "viscosity"
  DISPLAY_UNIT: "mPa·s"
  NUMERIC_VALUE: 268.7
- COMPOUND: "CC(C)[C@H](N)C(=O)[O-].CCCC[P+](CCCC)(CCCC)CCCC [tetrabutylphosphonium L-valinate]"
  MEASURED_METRIC: "viscosity"
  DISPLAY_UNIT: "mPa·s"
  NUMERIC_VALUE: 216.9

Entry under test: CCCC[N+](C)(CCCC)CCCC.C[C@@H](O)[C@H](N)C(=O)[O-] [N,N-dibutyl-N-methyl-1-butanaminium L-threoninate] . Its viscosity was 1845

Entry under test: CCCC[P+](CCCC)(CCCC)CCCC.NCCS(=O)(=O)[O-] [tetrabutylphosphonium 2-aminoethanesulfonate] . Its viscosity was 345.5

* * *

# Lookup of reported thermal conductivity keyed by entry
# CONDITION_PARAMETERS: 353.15 K; 101.33 kPa; Liquid; Hot wire method
± gives the expanded uncertainty stated by the source.
Write the numeric value and append its unit.

Consider the worked cases shown below.
- COMPOUND: "CC(C)[C@H](N)C(=O)[O-].CCCC[P+](CCCC)(CCCC)CCCC [tetrabutylphosphonium L-valinate]"
  thermal conductivity: "0.153 ± 0.01 W/m/K"
- COMPOUND: "CCCC[P+](CCCC)(CCCC)CCCC.N[C@@H](CS)C(=O)[O-] [tetrabutylphosphonium L-cysteinate]"
  thermal conductivity: "0.146 ± 0.01 W/m/K"
- COMPOUND: "CCCC[N+](C)(CCCC)CCCC.NCCCC[C@H](N)C(=O)[O-] [N,N-dibutyl-N-methyl-1-butanaminium L-lysinate]"
  thermal conductivity: "0.165 ± 0.01 W/m/K"

Switching to the query record.
Entry under test: CCCC[P+](CCCC)(CCCC)CCCC.C[C@@H](O)[C@H](N)C(=O)[O-] [tetrabutylphosphonium L-threoninate] . Its thermal conductivity was 0.151 ± 0.01 W/m/K

* * *

# CONDITION_PARAMETERS: 298.15 K; 101.33 kPa; Liquid; Vibrating tube method
Values of mass density greater than or equal to 1000 kg/m3 map to 1; values below map to -1.

- COMPOUND: "CCCC[P+](CCCC)(CCCC)CCCC.NCCCC[C@H](N)C(=O)[O-] [tetrabutylphosphonium L-lysinate]"
  DISCRETE_LABEL: -1
- COMPOUND: "CCCC[N+](C)(CCCC)CCCC.NCCS(=O)(=O)[O-] [N,N-dibutyl-N-methyl-1-butanaminium 2-aminoethanesulfonate]"
  DISCRETE_LABEL: 1

Turning to the following compound.
I'd appreciate it if you could say whether CCCC[P+](CCCC)(CCCC)CCCC.N[C@@H](CS)C(=O)[O-] [tetrabutylphosphonium L-cysteinate] has mass density at least equal to 1000 kg/m3.
1

* * *

# PROTOCOL_NOTES: molar heat capacity at constant pressure
# CONDITION_PARAMETERS: 313.15 K; 101.33 kPa; Liquid; Large sample (1 g) DSC
Param label: returns YES when molar heat capacity at constant pressure < 900 J/K/mol, returns NO otherwise, including exact equality.

Use the examples below as a reference point.
- COMPOUND: "CC(C)[C@H](N)C(=O)[O-].CCCC[P+](CCCC)(CCCC)CCCC [tetrabutylphosphonium L-valinate]"
  DISCRETE_LABEL: "YES"
- COMPOUND: "CCCC[P+](CCCC)(CCCC)CCCC.N[C@@H](CS)C(=O)[O-] [tetrabutylphosphonium L-cysteinate]"
  DISCRETE_LABEL: "NO"
- COMPOUND: "CCCC[P+](CCCC)(CCCC)CCCC.NCCCC[C@H](N)C(=O)[O-] [tetrabutylphosphonium L-lysinate]"
  DISCRETE_LABEL: "NO"
- COMPOUND: "CCCC[N+](C)(CCCC)CCCC.C[C@@H](O)[C@H](N)C(=O)[O-] [N,N-dibutyl-N-methyl-1-butanaminium L-threoninate]"
  DISCRETE_LABEL: "YES"
- COMPOUND: "CCCC[N+](C)(CCCC)CCCC.NCCS(=O)(=O)[O-] [N,N-dibutyl-N-methyl-1-butanaminium 2-aminoethanesulfonate]"
  DISCRETE_LABEL: "YES"
- COMPOUND: "CCCC[P+](CCCC)(CCCC)CCCC.O=C([O-])[C@@H]1CCCN1 [tetrabutylphosphonium L-prolinate]"
  DISCRETE_LABEL: "YES"
- COMPOUND: "CCCC[P+](CCCC)(CCCC)CCCC.NCCS(=O)(=O)[O-] [tetrabutylphosphonium 2-aminoethanesulfonate]"
  DISCRETE_LABEL: "NO"
- COMPOUND: "CCCC[P+](CCCC)(CCCC)CCCC.N[C@@H](CO)C(=O)[O-] [tetrabutylphosphonium L-serinate]"
  DISCRETE_LABEL: "YES"

Threshold test, molar heat capacity at constant pressure < 900 J/K/mol: CCCC[N+](C)(CCCC)CCCC.NCCCC[C@H](N)C(=O)[O-] [N,N-dibutyl-N-methyl-1-butanaminium L-lysinate]
YES

Threshold test, molar heat capacity at constant pressure < 900 J/K/mol: CCCC[P+](CCCC)(CCCC)CCCC.C[C@@H](O)[C@H](N)C(=O)[O-] [tetrabutylphosphonium L-threoninate]
NO

Threshold test, molar heat capacity at constant pressure < 900 J/K/mol: CCCC[N+](C)(CCCC)CCCC.N[C@@H](CO)C(=O)[O-] [N,N-dibutyl-N-methylbutanaminium L-serinate]
YES

* * *

# CONDITION_PARAMETERS: 313.15 K; 101.33 kPa; Liquid; Hot wire method
MEASURED_METRIC: thermal conductivity (W/m/K)
Write the value in W/m/K as a bare number.

- COMPOUND: "CCCC[P+](CCCC)(CCCC)CCCC.O=C([O-])[C@@H]1CCCN1 [tetrabutylphosphonium L-prolinate]"
  thermal conductivity (W/m/K): 0.152
- COMPOUND: "CC(C)[C@H](N)C(=O)[O-].CCCC[P+](CCCC)(CCCC)CCCC [tetrabutylphosphonium L-valinate]"
  thermal conductivity (W/m/K): 0.157
- COMPOUND: "CCCC[N+](C)(CCCC)CCCC.NCCCC[C@H](N)C(=O)[O-] [N,N-dibutyl-N-methyl-1-butanaminium L-lysinate]"
  thermal conductivity (W/m/K): 0.169

Switching to the query record.
Entry under test: CCCC[P+](CCCC)(CCCC)CCCC.C[C@@H](O)[C@H](N)C(=O)[O-] [tetrabutylphosphonium L-threoninate] . Its thermal conductivity was 0.154

* * *

# CONDITION_PARAMETERS: 323.15 K; 101.33 kPa; Liquid; Hot wire method
MEASURED_METRIC: thermal conductivity (W/m/K)
Write the value in W/m/K as a bare number.

- COMPOUND: "CC(C)[C@H](N)C(=O)[O-].CCCC[P+](CCCC)(CCCC)CCCC [tetrabutylphosphonium L-valinate]"
  thermal conductivity [W/m/K]: 0.156
- COMPOUND: "CCCC[P+](CCCC)(CCCC)CCCC.N[C@@H](CS)C(=O)[O-] [tetrabutylphosphonium L-cysteinate]"
  thermal conductivity [W/m/K]: 0.149
- COMPOUND: "CCCC[P+](CCCC)(CCCC)CCCC.O=C([O-])[C@@H]1CCCN1 [tetrabutylphosphonium L-prolinate]"
  thermal conductivity [W/m/K]: 0.151
- COMPOUND: "CCCC[P+](CCCC)(CCCC)CCCC.NCCCC[C@H](N)C(=O)[O-] [tetrabutylphosphonium L-lysinate]"
  thermal conductivity [W/m/K]: 0.161
- COMPOUND: "CCCC[N+](C)(CCCC)CCCC.NCCCC[C@H](N)C(=O)[O-] [N,N-dibutyl-N-methyl-1-butanaminium L-lysinate]"
  thermal conductivity [W/m/K]: 0.168

Entry under test: CCCC[N+](C)(CCCC)CCCC.N[C@@H](CO)C(=O)[O-] [N,N-dibutyl-N-methylbutanaminium L-serinate] . Its thermal conductivity was 0.166

Entry under test: CCCC[N+](C)(CCCC)CCCC.C[C@@H](O)[C@H](N)C(=O)[O-] [N,N-dibutyl-N-methyl-1-butanaminium L-threoninate] . Its thermal conductivity was 0.157

Entry under test: CCCC[P+](CCCC)(CCCC)CCCC.C[C@@H](O)[C@H](N)C(=O)[O-] [tetrabutylphosphonium L-threoninate] . Its thermal conductivity was 0.153
